assay: photoluminescence quantum yield (fraction); solvent given as SMILES; settings: in ClC(Cl)Cl
photoluminescence quantum yield values, listed per item
API doc: respond with a numeric literal and nothing else, no unit.

These solved cases illustrate the format of a correct answer.
CCCCCCCCCCOc1ccc2c3c(oc2c1)C1=C2C(=O)N4C=Cc5c(oc6cc(OCCCCCCCCCC)ccc56)C4=C2C(=O)N1C=C3 0.7
CC1=C2CCc3ccccc3C2=[N+]2C1=C(c1ccc(I)cc1)c1c(C)c3c(n1[B-]2(F)F)-c1ccccc1CC3 0.72

Consider the additional molecule presented here.
Fill in the blank: the reported photoluminescence quantum yield of CCC1=C(C)C(=O)n2c1cc1c(c(C)c(C(=O)OC)n1C)c2=O is ____.
0.71

---

assay: photoluminescence quantum yield (fraction); solvent given as SMILES; conditions: in ClC(Cl)Cl
photoluminescence quantum yield values, listed per item
API doc: respond with a numeric literal and nothing else, no unit.

These solved cases illustrate the format of a correct answer.
compound	measured-endpoint	assay-result
F[B-]1(F)OC(c2cccc(Br)c2)=Cc2c3ccccc3c3ccccc3[n+]21	photoluminescence quantum yield	0.106
CCCCC1=Cc2c3ccc4cccc5ccc(c6cc(-c7ccc(N(c8ccccc8)c8ccccc8)cc7)n(c26)P1(=O)c1ccccc1)c3c45 (stereo not given)	photoluminescence quantum yield	0.58

Fill in the blank: the reported photoluminescence quantum yield of CCCCCCC(CCCCCC)N1C(=O)c2cccc3c(-c4ccc([Si](C)(C)C)cc4)ccc(c23)C1=O is ____.
0.79

Fill in the blank: the reported photoluminescence quantum yield of CCCCN1C(=O)c2cc(Oc3ccc(C(C)(C)C)cc3)c3c4c(Oc5ccc(C(C)(C)C)cc5)cc5c6c(cc(Oc7ccc(C(C)(C)C)cc7)c(c7c(Oc8ccc(C(C)(C)C)cc8)cc(c2c37)C1=O)c64)C(=O)N(CCCC)C5=O is ____.
0.83

Fill in the blank: the reported photoluminescence quantum yield of CSc1cc(-c2cc3cc4c5c(c3oc2=O)CCCN5CCC4)oc(=O)c1C#N is ____.
0.53

Fill in the blank: the reported photoluminescence quantum yield of N#CC1=CC(C=O)=CC(C#N)=P1(c1ccccc1)c1ccccc1 is ____.
0.72

---

test: photoluminescence quantum yield (fraction); solvent given as SMILES; conditions: in ClCCl
photoluminescence quantum yield values, listed per item

CCN(CC)c1ccc2ccc(=O)oc2c1 0.9

Fill in the blank: the reported photoluminescence quantum yield of CCCc1cc2c(s1)-c1cc3c(cc1NB2c1ccccc1)-c1sc(CCC)cc1B(c1ccccc1)N3 is ____.
0.19

Fill in the blank: the reported photoluminescence quantum yield of COc1ccc(-c2cc3c(s2)c(C(C)=O)cc(=O)n3C)cc1 is ____.
0.98

Fill in the blank: the reported photoluminescence quantum yield of O=S1(=O)c2ccc(-c3ccc(-n4c5ccccc5c5ccccc54)cc3)cc2C2(c3ccccc3-c3ccccc32)c2cc(-c3ccc(-n4c5ccccc5c5ccccc54)cc3)ccc21 is ____.
0.86

Fill in the blank: the reported photoluminescence quantum yield of COc1ccc(-c2cn3cc(C)c[n+]3[n-]2)cc1 is ____.
0.025

Fill in the blank: the reported photoluminescence quantum yield of c1ccc(-c2cc3c(-c4ccccc4)c4cccc5c(-c6ccccc6)cc6c(-c7ccccc7)c7cccc2c7c3c6c54)cc1 is ____.
0.26

Fill in the blank: the reported photoluminescence quantum yield of CCOC(=O)C1=C(C(=O)OCC)C2(c3ccccc3-c3ccccc32)[C@@H](c2ccccc2)C=C2c3cc(OC)c(OC)cc3CCN21 is ____.
0.00154

Fill in the blank: the reported photoluminescence quantum yield of COc1ccc(/C=C/c2nc(N3CCOCC3)c3c([n+]2[O-])CCCC3)cc1 is ____.
0.12

Fill in the blank: the reported photoluminescence quantum yield of c1ccc2c(-n3c(-c4ccc(-c5ccc(-c6nc7c8ccccc8c8ccccc8c7n6-c6cccc7ccccc67)c6ccccc56)c5ccccc45)nc4c5ccccc5c5ccccc5c43)cccc2c1 is ____.
0.75

---

assay: photoluminescence quantum yield (fraction); solvent given as SMILES; details: in ClCCl
measured-endpoint: photoluminescence quantum yield

These solved cases illustrate the format of a correct answer.
COc1ccc(-c2sc3c(-c4ccc(OC)cc4)c4n(c3c2-c2ccc(OC)cc2)[B-](F)(F)[N+]2=Cc3c(-c5ccc(OC)cc5)c5sc(-c6ccc(OC)cc6)c(-c6ccc(OC)cc6)c5n3[B-](F)(F)[N+]2=C4)cc1 0.5
COc1ccc(-c2ccc(-c3cc(-c4ccccn4)nc(-c4ccccn4)c3)cc2)cc1 0.5
COc1ccc(C2=[N+]3C(=Cc4c5ccc(OC)cc5c(-c5ccc(OC)cc5)n4[B-]3(F)F)c3ccc(OC)cc32)cc1 0.49

Fill in the blank: the reported photoluminescence quantum yield of Cc1ccc(C2=[N+]3C(=Cc4c(C)cc(C)n4[B-]3(F)F)c3ccccc32)[nH]1 is ____.
0.89

Fill in the blank: the reported photoluminescence quantum yield of Cc1cc(C)c(B(c2ccc(-c3ccc(-c4nc5c6ccccc6c6ccccc6c5[nH]4)cc3)cc2)c2c(C)cc(C)cc2C)c(C)c1 is ____.
0.59

Fill in the blank: the reported photoluminescence quantum yield of O=C1OC(=O)C2=C1[Se][C@]13C2=C[C@H](c2ccccc21)c1ccccc13 is ____.
0.62

Fill in the blank: the reported photoluminescence quantum yield of Fc1ccc(-c2cc3c4c(c2)CCc2cc(-c5ccc(F)cc5)cc(c2-4)CC3)cc1 is ____.
1

---

assay: photoluminescence quantum yield (fraction); solvent given as SMILES; conditions: in ClCCl
photoluminescence quantum yield values, listed per item

These solved cases illustrate the format of a correct answer.
compound	measured-endpoint	assay-result
COc1cc(OC)cc(-c2ccc(C3=CC(c4ccccc4)=C(c4ccccc4)C3)cc2)c1	photoluminescence quantum yield	0.0575
CCOC(=O)COc1ccc(/C=C/C2=C3c4ccccc4C(c4[nH]c(C)cc4C)=[N+]3[B-](F)(F)n3c(/C=C/c4ccc(OCC(=O)OCC)cc4)cc(C)c32)cc1	photoluminescence quantum yield	0.012
O=Cc1ccc2c(c1)c1ccccc1n2-c1cc2ccccc2c2ccccc12	photoluminescence quantum yield	0.03
N#Cc1ccc(-n2cccc2)cc1	photoluminescence quantum yield	0.022
Cc1cc(C)c(C2=C3C=c4c(c5ccc(C(C)(C)C)cc5c5cc(C(C)(C)C)ccc45)=[N+]3[B-](F)(F)n3c2cc2c4ccc(C(C)(C)C)cc4c4cc(C(C)(C)C)ccc4c23)c(C)c1	photoluminescence quantum yield	0.25

Consider the additional compound presented here.
Fill in the blank: the reported photoluminescence quantum yield of CCC1=C(C)C2=Cc3c4ccccc4c4n3[B-](c3ccc5ccc6cccc7ccc3c5c67)(Oc3ccccc3-4)[N+]2=C1C (stereo unspecified) is ____.
0.71

---

photoluminescence quantum yield values, listed per item
experiment: photoluminescence quantum yield (fraction); solvent given as SMILES; details: in CCO
API doc: respond with a numeric literal and nothing else, no unit.

molecule	photoluminescence quantum yield
c1ccc(-c2cc(-c3ccc4ccc5c(-c6ccnc(-c7ccccn7)c6)ccc6ccc3c4c65)ccn2)nc1	0.39
Cc1c(C)n2c(COC(=O)c3ccccc3O)c(C)c(=O)n2c1=O	0.641
O=C1C2=C(O[B-](F)(F)[n+]3c2ccc2ccccc23)c2ccc(N3CCOCC3)c3cccc1c23	0.46
CC1(C)CC(=O)C2=C(C1)Oc1ccc3cc(O)ccc3c1C2c1ccccn1 (configuration not stated)	0.067

Fill in the blank: the reported photoluminescence quantum yield of N#Cc1cccc2c(N)c(-c3nn([C@H]4C[C@H](O)[C@@H](CO)O4)c4ncnc(N)c34)ccc12 is ____.
0.13

Fill in the blank: the reported photoluminescence quantum yield of COc1cc(OC)cc(-c2ccc(-c3ccc(C#N)s3)s2)c1 is ____.
0.1

Fill in the blank: the reported photoluminescence quantum yield of Cc1ccccc1-c1c2ccc(=[N+]3CCCC3)cc-2oc2cc(N3CCCC3)ccc12 is ____.
0.95

Fill in the blank: the reported photoluminescence quantum yield of OCc1ccc2c3cccc4cccc(c5cccc1c52)c43 is ____.
0.95

Fill in the blank: the reported photoluminescence quantum yield of Cc1c(COC(=O)Cc2cccc3ccccc23)n2c(OCC(=O)Cc3cccc4ccccc34)c(C)c(=O)n2c1=O is ____.
0.84

---

test: photoluminescence quantum yield (fraction); solvent given as SMILES; conditions: in CC#N
Recorded photoluminescence quantum yield determines the label; the label ranges are lower segment: < 0.02; middle segment: ≥ 0.02 and < 0.08; upper segment: ≥ 0.08

Solved cases below.
compound	label-class
CC1=N/C(=C\c2cc(C#N)cc(N(C)C)c2)C(=O)N1C	middle segment
F[B-]1(F)OC(c2ccc3ccccc3c2)=CC(c2ccc3ccccc3c2)=[O+]1	upper segment
CCN(CC)c1ccc2cc(/C=C/C(=O)c3cc4ccc(N(CC)CC)cc4oc3=O)c(=O)oc2c1	upper segment
CN(C)c1ccc(/C=C/c2nc3c(ccc4ccccc43)s2)cc1	lower segment
F[B-]1(F)n2cccc2C(c2ccc(-c3c4ccccc4c(-c4ccccc4)c4ccccc34)cc2)=C2C=CC=[N+]21	lower segment
CC(C)[Si]1(C(C)C)c2ccccc2-c2ccc(N(C)C)cc21	upper segment

Band for the recorded photoluminescence quantum yield of c1ccc(C2CCN3COc4c5ccccc5c5c6c7c(c2c3c46)C(c2ccccc2)CCN7CO5)cc1 (centres undefined) ?
middle segment

Band for the recorded photoluminescence quantum yield of COc1ccc(-c2csc(/C(C#N)=C/c3ccc(Cl)cc3Cl)n2)cc1 ?
middle segment

Band for the recorded photoluminescence quantum yield of CC1=CC(C)=[N+]2C1=C(c1c3ccccc3c(-c3ccccc3)c3ccccc13)c1c(C)cc(C)n1[B-]2(F)F ?
lower segment

Band for the recorded photoluminescence quantum yield of O=c1oc2ccccc2cc1-c1cc2ccccc2o1 ?
upper segment

Band for the recorded photoluminescence quantum yield of CCCCCCCCCCOc1cc2cc(C#Cc3ccc(/C=C(\C#N)C(=O)O)cc3)c(=O)oc2cc1OCCCCCCCCCC ?
middle segment
